# tested-system: rVDAC1-GFP2 / rVDAC1-Rluc in T-REx-293 cells (Rattus norvegicus, UniProt Q9Z2L0)
# Construct: The rVDAC1 gene was cloned into BamHI and HindIII sites of the BRET2 plasmids (N2 variants); expressed in transfected cells; host or cells: T-REx-293 cells stably expressing hVDAC1-shRNA (T-REx-pS10)
# Sequence (Q9Z2L0 with tags, fused parts or gaps limits assumed): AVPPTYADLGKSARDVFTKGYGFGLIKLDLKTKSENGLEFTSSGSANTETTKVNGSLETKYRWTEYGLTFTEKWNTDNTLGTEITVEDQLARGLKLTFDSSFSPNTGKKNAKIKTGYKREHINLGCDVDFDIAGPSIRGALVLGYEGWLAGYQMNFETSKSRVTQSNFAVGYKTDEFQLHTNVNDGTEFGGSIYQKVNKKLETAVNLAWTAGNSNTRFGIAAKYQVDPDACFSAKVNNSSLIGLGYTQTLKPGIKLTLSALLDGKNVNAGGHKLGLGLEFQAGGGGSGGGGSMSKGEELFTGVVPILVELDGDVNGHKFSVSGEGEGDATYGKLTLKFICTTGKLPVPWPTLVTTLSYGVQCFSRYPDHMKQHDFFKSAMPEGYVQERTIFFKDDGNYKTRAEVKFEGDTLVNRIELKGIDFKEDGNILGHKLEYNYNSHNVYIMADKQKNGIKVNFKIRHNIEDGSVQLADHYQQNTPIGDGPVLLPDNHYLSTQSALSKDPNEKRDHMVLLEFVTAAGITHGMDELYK
# protocol: BRET2 assay of VDAC1 oligomerization induced by apoptosis inducers (Method A)
# Format: cell-based
# recorded-conditions: test compound 10 μM, 1 h pre-incubation, As2O3 60 μM (3 h)
metric: BRET2, % of inhibition, As2O3 (%)
// note: answer is a bare numeric in %

INSERT INTO measurements (compound, numeric_result) VALUES
  ('CCCCC(=O)N1CCCC(C)C1 (stereo not drawn)', 86.5),
  ('CC1=CC(=O)C(C(C)=Nc2ccccc2Cl)C(=O)O1 (stereo not drawn)', 55.4),
  ('NC(=O)c1ccc(Oc2ccc(C(N)=O)cc2)cc1', 70.2),
  ('NCc1c(O)ccc2ccccc12', 0);

Summary for this compound, "Nc1ccc(C(=O)Nc2cccc(N)c2)cc1" : BRET2, % of inhibition, As2O3 is 98

Summary for this compound, "CN(C)c1ccc(N=Nc2cccc3ccoc23)cc1" : BRET2, % of inhibition, As2O3 is 87.8

Summary for this compound, "Nc1ccc(C(=O)Oc2ccc([N+](=O)[O-])cc2)cc1" : BRET2, % of inhibition, As2O3 is 65.8

Summary for this compound, "CN(C)c1cccc(/C=C(\C#N)c2ccccc2)c1" : BRET2, % of inhibition, As2O3 is 77.5

Summary for this compound, "CCOc1ccc(Nc2c3ccccc3nc3ccccc23)cc1" : BRET2, % of inhibition, As2O3 is 62.7

Summary for this compound, "Cc1ccc([N+](=O)[O-])cc1NC(=O)Nc1ccc(S(N)(=O)=O)cc1" : BRET2, % of inhibition, As2O3 is 100

Summary for this compound, "CC(=O)N1C=Cc2c(c(C)c3c([nH]c4ccccc43)c2C)C1" : BRET2, % of inhibition, As2O3 is 88.3

Summary for this compound, "O=C(Nc1ccc(Nc2ccncc2)cc1)c1ccc(Nc2ccnc3ccc([N+](=O)[O-])cc23)cc1" : BRET2, % of inhibition, As2O3 is 70.7

Summary for this compound, "O=C(Nc1ccc(Cl)c([N+](=O)[O-])c1)Nc1nc2ccccc2s1" : BRET2, % of inhibition, As2O3 is 82.8

Summary for this compound, "O=c1c(-c2ccc(O)cc2)coc2cc(O)cc(O)c12" : BRET2, % of inhibition, As2O3 is 49

Summary for this compound, "Clc1ccc(-c2nc(-c3cc4cc(Cl)ccc4o3)cs2)cc1" : BRET2, % of inhibition, As2O3 is 67.3
